# TARGET_ENTITY: T1, CD300c抗原(11832-H08H，义翘神州) (UniProt Q08708)
# T1 sequence (looked up): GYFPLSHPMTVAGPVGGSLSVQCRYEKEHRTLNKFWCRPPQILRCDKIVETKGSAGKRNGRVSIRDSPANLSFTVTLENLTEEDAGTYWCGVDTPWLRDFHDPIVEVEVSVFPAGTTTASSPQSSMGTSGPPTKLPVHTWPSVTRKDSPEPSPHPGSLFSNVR
# ASSAY_TEXT: binding ELISA, CD300c antigen coated at 8 μg/mL, HRP anti-Fc IgG
READOUT_NAME: EC50 (µg/mL)
Your answer should be a plain number; it is taken to be in µg/mL.

Q. Name the recorded EC50 of the binder listed here: 抗CD300c单克隆抗体 SK16 (antibody, from another filing, V domains shown) VH: RVQLLESGGGLVQPGGSLRLSCAASGFTFSSYAMSWVRQAPGKGLEWVSAINGSGGSTLYADSVKGRFTISRDNSKNTLYLQMNSLRAEDTAVYYCARGVSGFDSWGQGTLVTVSS VL: EIVLTQSPGTLSLSPGERATLSCRISQSISSYLNWYQQKPGQAPRLLIYDASLRATGIPDRFSGSGSGTDFTLTISRLEPEDFAVYYCQQSYKTPITFGQGTKVEIK
A. 2.42

Q. Name the recorded EC50 of the binder listed here: 抗CD300c单克隆抗体 CK1 (antibody, from another filing, V domains shown) VH: EVQLLESGGGLVQPGGSLRLSCAASGFTFSRYAMTWVRQAPGKGLEWVSSMSGTGGTTYYADSVKGRFTISRDNSKNTLYLQMNSLRAEDTAVYYCARGAYGFDHWGQGTLVTVSS VL: EIVLTQSPGTLSLSPGERATLSCRASQSIGNYLNWYQQKPGQAPRLLIYDASNLETGIPDRFSGSGSGTDFTLTISRLEPEDFAVYYCQQSSAIPYTFGQGTKVEIK
A. 0.056

Q. Name the recorded EC50 of the binder listed here: 抗CD300c单克隆抗体 SL18 (antibody, from another filing) RVQLLESGGGLVQPGGSLRLSCAASGFTFSDYHMHWVRQAPGKGLEWVSTISSSGGYTYYAESVKSRFTISRDNSKNTLYLQMNSLRAEDTAVYYCARSIRLPLDYWGQGTLVTVSSSGGGSGGGGSGGGGSQSVLTQPPSASGTPGQRVTISCSGNNIGSKGVHWYQQLPGTAPKLLIYEDSKRPSGVRDRFSGSKSGTSASLAISGLRSEDEADYYCQSYDSTKGVVFGGGTKLTVL
A. 0.17
